Give measured CC50 for each item. Keep answers brief.
Test: in vitro
Details: African green monkey
All answers are understood in µM, so give the number only.

Can you look up the measured CC50 of `Cc1cc2ncn(-c3ccc(OC(C)C)cc3)c2cc1-c1ccc(C(C)(C)O)cc1` for me? 4.5

Also check `COc1cc2nnn(-c3ccc(O)cc3)c2cc1-c1ccc(O)cc1` 32.2

* * *

Kindly state Vd for each of the entries shown.
Assay: in vivo
Details: mouse
Answer with the figure and its unit, nothing else.

Find the recorded Vd belonging to `Cc1cc2ncn(-c3ccc(OC(C)(C)C)cc3)c2cc1-c1ccc(C(C)(C)O)cc1` and report it. 17.6 L/kg

Now give it for `Cc1cc2ncc(-c3ccc(OC(C)(C)C)cc3)n2cc1-c1ccc(OC(C)C)cc1` too. 35.7 L/kg
